# SYSTEM_UNDER_TEST: M4 muscarinic receptor (Homo sapiens)
# Construct: expressed in transfected cells; host or cells: CHO (M4-CHO)
# Sequence (P08173 whole entry): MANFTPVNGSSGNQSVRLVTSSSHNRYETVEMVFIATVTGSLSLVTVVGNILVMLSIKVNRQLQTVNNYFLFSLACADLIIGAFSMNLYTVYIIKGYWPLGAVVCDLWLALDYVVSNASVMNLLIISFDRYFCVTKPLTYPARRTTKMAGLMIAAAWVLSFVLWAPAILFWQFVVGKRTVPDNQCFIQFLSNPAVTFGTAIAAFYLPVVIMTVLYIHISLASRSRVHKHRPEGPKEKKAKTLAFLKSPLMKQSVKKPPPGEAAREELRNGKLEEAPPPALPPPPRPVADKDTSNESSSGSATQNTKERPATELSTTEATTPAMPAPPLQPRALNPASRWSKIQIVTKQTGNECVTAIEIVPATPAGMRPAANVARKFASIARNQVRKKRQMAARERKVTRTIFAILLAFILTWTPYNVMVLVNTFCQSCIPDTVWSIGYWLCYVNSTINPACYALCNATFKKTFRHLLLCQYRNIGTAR
# PROTOCOL_DETAILS: Functional mobilization of intracellular calcium (FLIPR) in M4-CHO cells
# Type: cell-based
# ASSAY_SETUP: Table 4; 100% efficacy is the maximum response obtained with the Carbachol control
Can you tell me Emax for the items I'm about to list?

IN: Item: O=C(N[C@H]1CCC2(CCN(C3CC4CCC(C4)C3)CC2)c2ccccc21)C1CC1 (stereo partly shown) Test system: M4 muscarinic receptor (Homo sapiens) Read-out: Emax Value: ?
OUT: 25 to 100%

IN: Can you look up Emax on M4 muscarinic receptor (Homo sapiens) for O=C(N[C@H]1CC2(CCN([C@@H]3CC4CC[C@@H]3C4)CC2)c2ccccc21)C1CC1 ?
OUT: 25 to 100%

IN: Provide the documented Emax with M4 muscarinic receptor (Homo sapiens) as the system for CCOC(=O)N1C2CCC1CC(N1CCC3(CC1)CN(C(C)=O)c1ccc(C(C)C)cc13)C2 (stereo not shown)
OUT: 25 to 100%

IN: Report Emax for CN(C)C(=O)N[C@H]1CC2(CCN(C[C@@H]3C[C@H]4C=C[C@H]3C4)CC2)c2ccccc21 tested on M4 muscarinic receptor (Homo sapiens).
OUT: < 25%

IN: Form entry - test system: M4 muscarinic receptor (Homo sapiens); read-out: Emax; compound: CCOC1CCCCC1N1CCC2(CC1)CN(C(C)=O)c1ccc(F)cc12 (stereo not shown)
OUT: < 25%

IN: What measured Emax is associated with C#CCCOC(=O)N1CC[C@@H](CN2CCC3(CC2)CN(C(C)=O)c2ccccc23)C1 on M4 muscarinic receptor (Homo sapiens)?
OUT: < 25%

IN: Please provide the recorded Emax for CN(C)C(=O)N1CC2(CCN(C3CCN(C(=O)c4ccon4)CC3)CC2)c2cc(F)ccc21 , tested on M4 muscarinic receptor (Homo sapiens).
OUT: 25 to 100%
